system: E304 endothelial cells (expressing mainly ERα); test: DNA synthesis by [3H]-thymidine incorporation in E304 cells; assay type: cell-based, human; conditions: read-out: concentration required for 50% inhibition of DNA synthesis (IC50), E304, 48 h incubation
OUTCOME MEASURE: pIC50
pIC50 here is simply -log10 of the concentration when that concentration is written in mol/L.

Name the reported pIC50 value associated with the molecule COc1cccc2c1C(=O)c1c(O)c3c(c(O)c1C2=O)C[C@@](O)(C(C)=O)C[C@@H]3O[C@H]1C[C@H](N)[C@H](O)[C@H](C)O1 [Daunomycin, daunomycin, reference compound]
6.10

* * *

target: Recombinant ERβ protein (Homo sapiens); test: Estrogen receptor-binding assay, [3H]-17β-estradiol displacement, ERβ; conditions: recombinant ERβ, [3H]-17β-estradiol 3 nM; read-out: inhibition of binding of [3H]-estradiol to ERβ, relative binding affinity values (IC50)
Sequence (Q92731 whole entry, species assumed): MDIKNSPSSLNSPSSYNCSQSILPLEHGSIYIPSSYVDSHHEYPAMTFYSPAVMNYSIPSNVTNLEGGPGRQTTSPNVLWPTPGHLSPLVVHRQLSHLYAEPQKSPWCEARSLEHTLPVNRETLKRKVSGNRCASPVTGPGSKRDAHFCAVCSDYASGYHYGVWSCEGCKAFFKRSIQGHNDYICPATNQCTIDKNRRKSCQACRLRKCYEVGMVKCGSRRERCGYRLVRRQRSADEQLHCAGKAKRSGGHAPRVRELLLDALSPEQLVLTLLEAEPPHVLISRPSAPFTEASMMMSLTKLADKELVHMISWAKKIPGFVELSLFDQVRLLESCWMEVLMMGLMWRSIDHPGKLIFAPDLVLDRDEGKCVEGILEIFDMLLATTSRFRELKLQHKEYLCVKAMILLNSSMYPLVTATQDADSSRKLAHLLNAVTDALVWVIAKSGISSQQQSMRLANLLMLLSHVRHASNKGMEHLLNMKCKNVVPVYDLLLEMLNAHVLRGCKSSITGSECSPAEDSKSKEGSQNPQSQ
OUTCOME MEASURE: IC50 (µM)
Your answer should be a plain number; it is taken to be in µM.

Name the reported IC50 value associated with the compound O=C(O)Cc1c(O)cc2occ(-c3ccc(O)cc3)c(=O)c2c1O [6-carboxymethyl genistein]
0.2

* * *

Test system: human vascular smooth muscle cells (VSMC), expressing mainly ERβ
Assay: cells
Format: cell-based
Conditions: Homo sapiens, VSMC; [3H]-thymidine incorporation; read-out: induced proliferation, EC50 in VSMC
Experimental: Human umbilical artery smooth muscle cells, expressing mainly ERβ, were prepared as previously described with minor modifications (Somjen D. et al. 1998 Hypertension 32:39-45). In brief, umbilical cords were collected shortly after delivery. […] Assessment of DNA synthesis was performed by [^3H]-thymidine incorporation in these cells. […] The cellular layer was dissolved in 0.3 ml of 0.3M NaOH, samples were taken and [^3H] thymidine incorporation into DNA was determined. […]
OUTCOME MEASURE: EC50 (nM)
Your answer should be a plain number; it is taken to be in nM.

Name the reported EC50 value associated with the molecule O=C(O)Cc1c(O)cc2occ(-c3ccc(O)cc3)c(=O)c2c1O [6-carboxymethyl genistein]
3

* * *

Test system: human adrenocortical carcinoma cells (NCI-H295R)
Assay: cells
Format: cell-based
Conditions: Homo sapiens, NCI-H295R; [3H]-thymidine incorporation; read-out: induced proliferation, EC50 in NCI-H295R
Protocol: These cells were purchased from ATTC (Rockville, Md.) and grown in Dulbecco's modified Eagle's medium containing antibiotics. Assessment of DNA synthesis was performed by [^3H]-thymidine incorporation in these cells. […] The cellular layer was dissolved in 0.3 ml of 0.3M NaOH, samples were taken and [^3H] thymidine incorporation into DNA was determined. The concentration of hormone to produce half-maximal induction (EC50) or inhibition (IC50) was calculated from the dose response curves. […]
OUTCOME MEASURE: EC50 (nM)
Your answer should be a plain number; it is taken to be in nM.

Name the reported EC50 value associated with the molecule O=C(O)Cc1c(O)cc2occ(-c3ccc(O)cc3)c(=O)c2c1O
2
